# Experiment description: chemical genetic growth profiling, strain panel (AID 1159580);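 note: tested at 20 µM; growth read once vehicle control cultures reached saturation at 30 °C; 1 = growth at the plate median or of vehicle wells; lower values mean less growth of the strain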
# Run parameters: S. cerevisiae deletion strains, growth OD, locus YNL298W, strain CLA4
The campaign covered roughly 5,500 compounds. About 2,000 (36%) were called active. Roughly 18% stayed inconclusive and do not appear here. Cut-off read from the data, not from the text of the source: active = normalized growth mostly below about 0.91 (no sharp cut-off); inconclusive = no clear call, values can overlap the other calls; inactive = mostly above about 0.92. The list shows a part of the results.
Labels: active, inactive

Compound | Label class
Cc1ccccc1OCC(O)CO (stereo unspecified) | inactive
C[C@@H]([C@H](O)c1ccccc1)N(C)C | inactive
CC1(C)C(=O)C=C[C@@]2(C)C1C=C[C@]1(C)C2CC[C@@]2(C)[C@H](c3ccoc3)OC(=O)C3OC321 (stereo partly specified) | inactive
NC(=O)NCCCC(N)C(=O)O (stereo unspecified) | inactive
CCC/C=C1\OC(=O)C2=C1CCC=C2 | inactive
CC1(C)O[C@H]2CC(=O)OC[C@]23[C@H]2CC[C@@]4(C)[C@H](c5ccoc5)OC(=O)[C@H]5O[C@]54[C@]2(C)C(=O)C[C@@H]13 | inactive
COC(=O)[C@@]1(C)CCC[C@]2(C)c3ccc(O)c(C(C)C)c3CCC12 (stereo partly specified) | active
CC1(C)C2CC(=O)[C@]3(C)C(CC[C@@]4(C)[C@H](c5ccoc5)OC(=O)C5OC543)[C@@]2(C)[C@@H](O)C[C@H]1O (stereo partly specified) | inactive
O=C(O)C1=C[C@@H](O)[C@@H](O)[C@H](O)C1 | inactive
COc1ccc2c3c1OC1C(O)CC=C4C(C2)N(C)CCC431 (stereo unspecified) | inactive
CC(=O)OC(C)C[N+](C)(C)C (stereo unspecified) | inactive
CCCCCCCCCCCCCCCCCC(=O)OC(CC(=O)O)C[N+](C)(C)C (stereo unspecified) | active
CC(C)c1c(O)ccc2c1CCC1[C@@](C)(CO)CCC[C@]21C (stereo partly specified) | inactive
CNC(C)C(O)c1ccccc1 (stereo unspecified) | inactive
CNC(=O)Oc1cccc2c1OC(C)(C)O2 | inactive
CC(C)c1c(O)c(-c2cc3c(c(C(C)C)c2O)CCC2C(C)(C)CCC[C@]32C)cc2c1CCC1C(C)(C)CCC[C@]21C (stereo partly specified) | inactive
CCC(N)C(O)c1ccc(O)c(O)c1 (stereo unspecified) | inactive
C[N+](C)(C)CC(O)CC(=O)O (stereo unspecified) | inactive
CC(C)C1COc2cc3oc(=O)ccc3cc2O1 (stereo unspecified) | active
COC(=O)[C@]1(C)CCC[C@]2(C)c3ccc(C(C)C)cc3C(=O)CC12 (stereo partly specified) | inactive
CCC1OC(=O)[C@H](C)C(=O)[C@H](C)[C@@H](OC2O[C@H](C)C[C@H](N(C)C)[C@H]2O)[C@](C)(OC)C2(CCCn3cnc(-c4cccnc4)c3)C[C@@H](C)C(=O)[C@H](C)[C@H]3N(C2)C(=O)O[C@]13C (stereo partly specified) | inactive

---

# Experiment description: chemical genetic growth profiling, strain panel (AID 1159580);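 note: tested at 20 µM; growth read once vehicle control cultures reached saturation at 30 °C; 1 = growth at the plate median or of vehicle wells; lower values mean less growth of the strain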
# Run parameters: S. cerevisiae deletion strains, growth OD, locus YOR184W, strain ser1, active compounds read low
Screen size: about 5,500 compounds; about 2,000 (36%) were called active. About 18% were inconclusive and are not listed. Some of the results follow.
Rule: normalized growth below 1 gives 1, anything at or above gives 0.

Compound | Label class
Cc1cc(OC(=O)c2c(C)cc(OC(=O)c3c(C)cc(O)cc3O)cc2O)cc(O)c1C(=O)O | 1
COc1ccccc1/C=C\C(=O)O | 0
CCOC(=O)c1c(C)cc(OC)cc1O | 1
COc1ccc2c(c1C(C)C)CCC1C(C)(C)C(=O)CCC21C (stereo unspecified) | 1
O=C(O[C@@H]1Cc2c(O)cc(O)cc2O[C@@H]1c1cc(O)c(=O)c2c(O)c(O)cc([C@H]3Oc4cc(O)cc(O)c4C[C@H]3O)c2c1)c1cc(O)c(O)c(O)c1 | 1
O=C(OC1Cc2c(O)cc(O)cc2OC1c1cc(=O)c(O)c2c(O)c(O)cc(C3Oc4cc(O)cc(O)c4CC3O)c2c1)c1cc(O)c(O)c(O)c1 (stereo unspecified) | 1
COC(=O)c1c(C)cc(OC)cc1O | 1
NC(N)=NC(=O)c1nc(Cl)c(N)nc1N | 0
COc1c(C(C)C)oc2cc3oc(=O)ccc3cc12 | 1
CC/C(=C(/CC)c1ccc(O)cc1)c1ccc(O)cc1 | 1
COc1ccc2c3c1OC1C(O)CC=C4C(C2)N(C)CCC431 (stereo unspecified) | 0
CC(C)C1COc2cc3oc(=O)ccc3cc2O1 (stereo unspecified) | 1
CN(C)c1nc(N)c(C(=O)N=C(N)N)nc1Cl | 0
O=C(O[C@@H]1Cc2c(O)cc(O)cc2O[C@@H]1c1cc(O)c(=O)c2c(O)c(O)cc([C@H]3Oc4cc(O)cc(O)c4C[C@H]3OC(=O)c3cc(O)c(O)c(O)c3)c2c1)c1cc(O)c(O)c(O)c1 | 1
COc1cc(OC)c2ccc(=O)oc2c1 | 1
